Target: EPHB1 (UniProt P54762)
Sequence (P54762 whole entry, looked up): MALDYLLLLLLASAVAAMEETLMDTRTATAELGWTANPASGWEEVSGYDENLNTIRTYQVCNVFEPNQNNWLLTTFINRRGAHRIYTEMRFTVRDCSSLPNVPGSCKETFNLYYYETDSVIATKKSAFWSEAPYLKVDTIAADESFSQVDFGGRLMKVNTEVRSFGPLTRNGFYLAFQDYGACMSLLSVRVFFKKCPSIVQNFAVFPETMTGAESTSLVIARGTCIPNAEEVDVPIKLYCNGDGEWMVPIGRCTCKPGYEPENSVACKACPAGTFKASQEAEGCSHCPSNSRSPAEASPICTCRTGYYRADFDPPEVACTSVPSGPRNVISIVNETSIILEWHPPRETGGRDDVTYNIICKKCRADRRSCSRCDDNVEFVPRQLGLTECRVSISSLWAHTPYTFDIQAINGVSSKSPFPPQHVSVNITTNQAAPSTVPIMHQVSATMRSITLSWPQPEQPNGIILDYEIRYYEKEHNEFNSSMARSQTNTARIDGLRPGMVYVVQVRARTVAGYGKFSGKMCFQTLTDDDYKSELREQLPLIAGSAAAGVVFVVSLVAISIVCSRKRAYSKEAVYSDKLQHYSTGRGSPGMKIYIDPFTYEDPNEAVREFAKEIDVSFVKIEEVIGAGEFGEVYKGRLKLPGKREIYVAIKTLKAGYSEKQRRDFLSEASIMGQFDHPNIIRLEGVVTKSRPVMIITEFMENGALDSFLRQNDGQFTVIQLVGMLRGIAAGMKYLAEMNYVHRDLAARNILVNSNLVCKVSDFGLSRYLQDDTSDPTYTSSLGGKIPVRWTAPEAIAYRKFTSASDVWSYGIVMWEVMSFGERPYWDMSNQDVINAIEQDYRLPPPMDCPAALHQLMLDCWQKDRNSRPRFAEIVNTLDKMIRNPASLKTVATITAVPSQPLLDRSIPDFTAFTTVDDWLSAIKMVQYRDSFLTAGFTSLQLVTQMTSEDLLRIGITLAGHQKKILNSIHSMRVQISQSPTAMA
Test: phosphorylation enrichment, bacterial display (enrichment ratio); higher = better substrate or ligand; peptides without Tyr show the background
# class assignment by measured phosphorylation enrichment: low bin (below 0.5), mid bin (0.5 to below 0.7), high bin (0.7 or more)

Examples with answers:
CHKRTYKVTGL = low bin
GAMGHYVLAER [HFE_Y342] = low bin
SVTCTYSPALS [TP53_Y126_N131S] = mid bin

**Query** Classify this sequence: LDFNEYFRDLN [HPRT1_Y198_YF]
**Result** low bin

**Query** Also VIGRMYDFHVL [RPF2_Y109_YF] , if possible.
**Result** mid bin

**Query** Also VTQEQYELFCE [CBL_Y368_YF] , if possible.
**Result** high bin

**Query** Also RMDGKYACSFT [FLNB_Y704_T703K_YF] , if possible.
**Result** high bin

**Query** Also AGQEKYSAMRD [HRAS_Y64_E63K] , if possible.
**Result** low bin

**Query** Also KWHREYNFKYV [RICTOR_Y835_S837F] , if possible.
**Result** low bin

**Query** Also KRLWDYGMSSS [F8_Y1728_E1723K] , if possible.
**Result** low bin

**Query** Also ATHSGYRLNDY [CLDN14_Y233] , if possible.
**Result** mid bin

###

Biological target: SHP2-C SH2;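 also: peptide library displayed on the E. coli surface as eCPX fusions, selected cells deep-sequenced, score is each peptide's frequency after selection divided by its frequency in the input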
Experiment: SH2 binding enrichment of the phosphorylated peptide, bacterial display (enrichment ratio); higher = better substrate or ligand; peptides without Tyr show the background
Label false (0) if SH2 binding enrichment falls below 0.7; label true (1) in every other case.

KPNMNYDKLSW [FLI1_Y332_R337W] = true (1)
PEAALYGRFTI [FYN_Y440] = true (1)

**Query** Kindly determine if SH2 binding enrichment recorded for IGVDSYSVCKR [RPS6KA3_Y433_G431D] is above or exactly 0.7.
**Result** false (0)

**Query** Also LNYNEYFRDLN [HPRT1_Y198_D194N] , if possible.
**Result** false (0)

**Query** Also ALTDNYMFVVI [HAGH_Y61_L64V_YF] , if possible.
**Result** false (0)

**Query** Also TRTEAYAVSSF , if possible.
**Result** false (0)

###

Molecular target: Hck (UniProt P08631)
Sequence (P08631 whole entry, looked up): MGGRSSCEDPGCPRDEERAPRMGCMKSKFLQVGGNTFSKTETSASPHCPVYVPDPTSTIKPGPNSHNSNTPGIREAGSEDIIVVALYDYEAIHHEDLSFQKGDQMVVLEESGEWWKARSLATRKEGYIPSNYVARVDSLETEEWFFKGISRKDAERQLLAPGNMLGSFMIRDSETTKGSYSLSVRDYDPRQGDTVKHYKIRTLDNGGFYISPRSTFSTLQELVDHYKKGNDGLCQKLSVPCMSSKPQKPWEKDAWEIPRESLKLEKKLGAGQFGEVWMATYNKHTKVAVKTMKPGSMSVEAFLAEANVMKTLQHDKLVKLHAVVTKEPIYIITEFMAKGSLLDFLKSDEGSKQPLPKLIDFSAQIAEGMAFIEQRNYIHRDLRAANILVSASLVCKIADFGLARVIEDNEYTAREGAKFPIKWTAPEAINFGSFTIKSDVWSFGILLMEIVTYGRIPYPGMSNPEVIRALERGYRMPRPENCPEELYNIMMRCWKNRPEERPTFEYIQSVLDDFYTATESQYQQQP
Assay: phosphorylation enrichment, bacterial display (enrichment ratio); higher = better substrate or ligand; peptides without Tyr show the background
# class assignment by measured phosphorylation enrichment: lower band (below 0.5), central band (0.5 to below 0.6), upper band (0.6 or more)

Examples with answers:
LGNIVYSSLCG [BCOR_Y90_P85L] = upper band
TTGGFYSFGGG [KRT24_Y120_A115T_YF] = upper band
CHKRTYKVTGL = lower band
GEIQEYGAPLD [ABCC1_Y1508_S1512L] = lower band
ASMAKYYASGI [ACADSB_Y372_E376G] = lower band
AGAKTYKMSMA [CPS1_Y309] = lower band

Now consider the entry below.
**Query** Classify this sequence: SVVVPHEPPEV [TP53_Y220_Y220H]
**Result** lower band

###

Target: MERTK (UniProt Q12866)
Sequence (Q12866 whole entry, looked up): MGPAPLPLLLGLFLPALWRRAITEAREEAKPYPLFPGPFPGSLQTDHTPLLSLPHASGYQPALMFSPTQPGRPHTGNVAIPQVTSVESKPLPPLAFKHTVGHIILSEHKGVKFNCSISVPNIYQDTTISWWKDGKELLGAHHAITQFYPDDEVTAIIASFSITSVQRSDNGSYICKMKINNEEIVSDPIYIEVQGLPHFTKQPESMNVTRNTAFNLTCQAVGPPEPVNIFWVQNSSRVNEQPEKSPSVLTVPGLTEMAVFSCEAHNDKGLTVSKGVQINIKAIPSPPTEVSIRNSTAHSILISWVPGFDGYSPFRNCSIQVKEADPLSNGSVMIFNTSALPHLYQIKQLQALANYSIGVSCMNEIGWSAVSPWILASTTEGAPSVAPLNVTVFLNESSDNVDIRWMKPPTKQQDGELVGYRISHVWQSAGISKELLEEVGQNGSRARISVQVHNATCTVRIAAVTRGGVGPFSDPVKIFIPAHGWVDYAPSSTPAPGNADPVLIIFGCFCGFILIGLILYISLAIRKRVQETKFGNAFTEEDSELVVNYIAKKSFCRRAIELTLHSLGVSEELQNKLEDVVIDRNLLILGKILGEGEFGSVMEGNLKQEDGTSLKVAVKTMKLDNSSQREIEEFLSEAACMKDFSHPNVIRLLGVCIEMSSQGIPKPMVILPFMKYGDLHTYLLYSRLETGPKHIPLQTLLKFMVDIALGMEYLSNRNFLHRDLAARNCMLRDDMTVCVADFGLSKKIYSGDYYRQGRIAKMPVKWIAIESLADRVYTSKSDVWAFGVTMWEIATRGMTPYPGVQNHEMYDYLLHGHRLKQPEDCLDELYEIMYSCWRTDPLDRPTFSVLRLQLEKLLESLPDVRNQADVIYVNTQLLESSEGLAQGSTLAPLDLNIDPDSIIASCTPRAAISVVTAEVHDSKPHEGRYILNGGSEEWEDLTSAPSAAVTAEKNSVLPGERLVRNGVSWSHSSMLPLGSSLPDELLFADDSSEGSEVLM
Assay: phosphorylation enrichment, bacterial display (enrichment ratio); higher = better substrate or ligand; peptides without Tyr show the background
Label NOT MET if phosphorylation enrichment falls below 0.5; label MET in every other case.

Examples with answers:
SVVVPHEPPEV [TP53_Y220_Y220H] = NOT MET
PGVNYYFQVSA = MET
AIFEGYALPHA [ACTC1_Y171_P166A_YF] = MET
VDYQPYRKHKY [TEX37_Y28] = NOT MET
PRLMLYNPTTF [EGFR_Y270_P266R_YF] = MET
DQIDTYELSGA [DNM1_Y354_G359A] = NOT MET
EIVYVYVKKRS [DNAI2_Y7] = NOT MET
FAFQLYDLDPD [CHP2_Y123_R127P_YF] = MET
PPAPRYHHLAV [LZTR1_Y119_S122L] = MET
RGNMFYENSFA [EGFR_Y113_YF] = MET

**Query** Kindly determine if phosphorylation enrichment recorded for ADTETYLLEKS [MYH7_Y266_I263T] is above or exactly 0.5.
**Result** NOT MET

**Query** Also FSGKAYADEEQ [CRIM1_Y826_R831Q] , if possible.
**Result** MET

**Query** Also HNELFYEEAEH [VANGL1_Y345_YF] , if possible.
**Result** MET

**Query** Also TVDASYFGGRG [ANTXR2_Y380_YF] , if possible.
**Result** NOT MET

**Query** Also GVASDYKCVDP [VPS13B_Y1991_I1994V] , if possible.
**Result** NOT MET

**Query** Also VAVVQYSGTGQ [COL6A1_Y878] , if possible.
**Result** NOT MET

Data origin, for the record: the supplement of paper PMC10065799
